Tested on: CAKI-1 renal
method.notes: NCI-60 one-dose screen, 48 h
run.parameters: 10 µM unless noted
About 83,000 compounds went through this panel and 20% of them were active in at least one assay; those are over-represented in the sample as a whole. The source made the active and inactive calls. Rule for the calls: active = growth percent below 10; inactive = the rest.
Outcome (select one): active, inactive

# example entries with known answers
O=C1/C(=C/c2ccc([N+](=O)[O-])cc2)COc2ccc(O)c(O)c21	active
CC(C)(C)CC(C)(C)Nc1c(-c2ccc(-c3ccccc3)cc2)nc2cnccn12	inactive
CCNCCNc1cc(-c2ccc(Cl)cc2)c(C#N)c2nc3ccccc3n12	inactive

Qu. Which outcome was entered for the compound O=S(=O)(Nc1ccsc1-c1nc(-c2ccccc2)no1)c1cc(Cl)cc(Cl)c1 in this test?
Ans. inactive

Qu. Record request — test call for C/C(=N\NC(=O)Cn1c(-c2ccc(S(C)(=O)=O)cc2)nc2cc(Cl)ccc21)c1ccc(Cl)cc1
Ans. inactive

* * *

Tested on: SNB-75 CNS
method.notes: NCI-60 one-dose screen, 48 h (100 = growth as untreated, 0 = no growth, -100 = all killed)
run.parameters: 10 µM unless noted
This is part of a sample that, as a whole, favours compounds with a hit. Of some 83,000 tested, about 20% had one in any assay.
Label scheme, based on growth: low interval = under 30%, middle interval = from 30% up to 90%, high interval = 90% and over

Qu. Using the reported growth, which band applies to COc1ccc(O)c(-c2cc(-c3ccccc3)c(C#N)c(=O)[nH]2)c1 ?
Ans. high interval

Qu. Would you mind sorting CC1=NN(c2cccc(Cl)c2)C(=O)/C1=C\c1cn(CC(O)CN2CCCCC2)c2ccccc12 (stereo not given) into the appropriate category?
Ans. middle interval

Qu. Lab note: which band did CC(C)OCCCNCC(=O)Nc1ccc(S(=O)(=O)c2ccc(NC(=O)CNCCCOC(C)C)cc2)cc1 land in?
Ans. middle interval

Qu. State the class of the compound shown: COc1ccc(N(C)c2nc(Cl)nc3cnn(C)c23)cc1
Ans. low interval

Qu. Into which bin does this compound go? CCCCOC(=O)c1ccc(NC(=O)C(C)N2CCOCC2)cc1 (stereo not given)
Ans. high interval

Qu. Kindly state the category for this compound: Cl.Fc1c[c-]c(-c2ccccn2)c(F)c1.[Pt].c1ccc([PH+](C[PH+](c2ccccc2)c2ccccc2)c2ccccc2)cc1
Ans. low interval

Qu. Please classify: C[C@@H]1CC[C@@H]2[C@@H]1[C@H](OC(=O)/C=C/c1ccccc1)[C@]1(C3CCCCC3)C[C@@H](NC(=O)CO)[C@@]2(C)O1
Ans. middle interval

Qu. Category of CN(C)CCCCNc1ccc(NCCCCN(C)C)c2c1C(=O)c1c(O)ccc(O)c1C2=O , please.
Ans. middle interval

Qu. Which growth band matches CN(C)c1cnccn1 ?
Ans. high interval

Qu. Bin this entry: CCNCCNc1cc(C2CCCC2)c(C#N)c2nc3ccccc3n12
Ans. low interval

Qu. Just checking, what class would you give CSc1ccc(Cl)c(C(=O)Nc2sccc2C(N)=O)c1 here?
Ans. high interval

Qu. Determine which band this compound sits in: C=CCO[C@H]1CO[C@H]2[C@@H]1OC[C@@H]2Oc1ccc(Nc2ccnc(Nc3ccc(O[C@H]4CO[C@H]5[C@@H]4OC[C@@H]5OCC=C)c(Cl)c3)n2)cc1Cl
Ans. low interval

Qu. Looking at COc1cccc(-c2cnco2)c1OCc1c(C)c(COc2c(OC)cccc2-c2cnco2)c(C)c(COc2c(OC)cccc2-c2cnco2)c1C , which class would you pick?
Ans. low interval

Qu. Consider Clc1ccc2[nH]c3c(NCCCN4CCOCC4)ncnc3c2c1 . To which growth class does it belong?
Ans. middle interval

Qu. Which growth band matches CCC(C)NCc1ccccc1 (stereo not given) ?
Ans. high interval

Qu. Field: class (growth) — entry: NS(=O)(=O)Oc1ccc(NC(=O)C23CC4CC(CC(C4)C2)C3)cc1Cl
Ans. middle interval

Qu. In plain terms, what class is C=C1C(=O)O[C@H]2[C@H]1CC/C(COC(=O)/C=C\C(=O)NCc1ccc(Cn3c(=O)sn(-c4ccc(OC)cc4)c3=O)cc1)=C\CC[C@@]1(C)O[C@@H]21 ?
Ans. low interval

* * *

Test system: SNB-75 CNS
method.notes: NCI-60 one-dose screen, 48 h (100 = growth as untreated, 0 = no growth, -100 = all killed)
run.parameters: 10 µM unless noted
The panel holds about 83,000 compounds, 20% with a hit somewhere; the sample as a whole holds those more often.
Overview of recorded growth for various compounds
The reply should contain only the number, in %.

COc1cc2oc(-c3cccc(C(=O)Nc4ccc(C#N)cc4)c3)cc(=O)c2c(O)c1OC	83.9
Clc1ccc(/C=N\N=c2\scc(-c3ccc(Cl)cc3)n2/N=C/c2ccc(Cl)cc2)cc1	91.6
Cn1ccc(Cc2cnc(N)s2)n1	93.3
N=C(N)c1ccc(-c2ccc(/C=C/c3ccccc3)s2)cc1	24.3
CCCCC1COc2cccc3c(SCC(=O)N(C)c4cccc(Cl)c4)cc[n+]1c23 (stereo unspecified)	137

As a next step, examine the compound that follows.
Qu. State growth (SNB-75 CNS) of O=C1c2ccccc2C2(c3ccc(O)cc3)c3ccccc3Oc3cccc1c32 (stereo unspecified) .
Ans. 42.2

* * *

System: DU-145 prostate
method.notes: NCI-60 one-dose screen, 48 h (100 = growth as untreated, 0 = no growth, -100 = all killed)
run.parameters: 10 µM unless noted
About 83,000 compounds went through this panel and 20% of them were active in at least one assay; those are over-represented in the sample as a whole.
Threshold 80%. growth below it: true. growth at it or above: false.

Before answering, review these 8 worked examples.
Nc1c(C(=O)c2ccccc2)nnc2ncnn12	false
COc1cc(NC(=O)c2cc(O)c(CC=C(C)C)c(O)c2)cc2c1O[C@]1(C)CC[C@@H](O)C(C)(C)[C@H]1C2	true
COc1cc(C2C=C(c3cccc(NC(C)=O)c3)Nc3ncnn32)cc(OC)c1OC (centres undefined)	true
Cl.Fc1c[c-]c(-c2ccccn2)c(F)c1.[Pt].c1ccc([PH+](c2ccccc2)c2ccccc2[PH+](c2ccccc2)c2ccccc2)cc1	true
CCCCS(=O)(=O)Oc1ccc(-c2nc(C)c(C(=O)OCC)s2)cc1C=O	true
Cc1c(C(=O)O)nnn1-c1nccs1	false
CN(C)c1ccc2cc(-c3ccc(Cl)c(Cl)c3)c(N)nc2c1	true
N#Cc1cccc(-c2nc3ccccn3c2NCCN2CCOCC2)c1	false

We next turn to a different compound, shown below.
Qu. Input O=C1CCC(N2C(=O)c3cccc(NCCCC4CCN(CCNC(=O)c5cc6c(o5)C(=O)c5ccccc5C6=O)CC4)c3C2=O)C(=O)N1 (centres undefined) ; condition: growth strictly below 80%. Does it hold?
Ans. true

* * *

Test system: M14 melanoma
method.notes: NCI-60 one-dose screen, 48 h (100 = growth as untreated, 0 = no growth, -100 = all killed)
run.parameters: 10 µM unless noted
This is part of a sample that, as a whole, favours compounds with a hit. Of some 83,000 tested, about 20% had one in any assay.
Consider the following molecules and their measured growth readings.
Just the number in %, nothing appended.

# count of solved cases: 3
Cc1ccc(Nc2ccc(Nc3ccc(C)cc3S(=O)(=O)O)c3c2C(=O)c2ccccc2C3=O)c(S(=O)(=O)O)c1	88
Cc1cnc(Nc2ccc(OCCN3CCCC3)cc2)nc1NCc1ccco1	96.3
N=C(N)c1ccc(-c2ccc(-c3ccc(Cl)c(Cl)c3)o2)cc1	11.8

Then there is this molecule:
Qu. Supply growth value. Item: CCOc1ccc2nc(-c3cccc(OCC(=O)NC(C)C)c3)nc(Nc3ccc(-c4cn[nH]c4)cc3)c2c1
Ans. 11.6

* * *

System: HCC-2998 colon
method.notes: NCI-60 one-dose screen, 48 h (100 = growth as untreated, 0 = no growth, -100 = all killed)
run.parameters: 10 µM unless noted
About 83,000 compounds went through this panel and 20% of them were active in at least one assay; those are over-represented in the sample as a whole.
// boundary case: growth equal to 40% maps to not fulfilled; strictly smaller maps to fulfilled

Use the examples below as a reference point.
CC(C)n1nc(C#Cc2cccc3cc(-c4cccc(C(F)(F)F)c4)ncc23)c2c(N)ncnc21	not fulfilled
COc1ccc(-c2nnc(SCC(=O)NC3=NN=C(c4ccccc4)CS3)o2)cc1	not fulfilled
COc1ccc(NC(=O)c2cccc(-c3cc(=O)c4c(O)c(OC)c(OC)cc4o3)c2)cc1	not fulfilled
COc1ccc(/C(C)=N/NS(=O)(=O)c2ccc(C)cc2)cc1OC	not fulfilled
CC(C)OC(=O)OCOP(=O)(OCOC(=O)OC(C)C)C1CCCN(O)C1=O (stereo not drawn)	fulfilled

Qu. Consider O=C(CCc1nc(-c2cccc(Cl)c2)no1)Nc1ccccn1 . Does its growth lie strictly below 40%?
Ans. not fulfilled

Qu. Dear colleague, could you confirm whether growth of N#Cc1c(-c2ccc(C(F)(F)F)cc2)cc(N2CC(O)C2)n2c1nc1ccccc12 falls below 40%? Thanks.
Ans. not fulfilled

Qu. Determine whether this compound shows growth lower than 40% (ties excluded): CCCCCCCSc1ccc(C(=O)O)cc1
Ans. not fulfilled
